Assay: Volume of distribution at steady state in Beagle dog at 0.5 mg/kg, iv or. 5 mg/kg, po
Assay type: ADME, organism-based, Canis lupus familiaris
Conditions: in vivo, read-out: Vdss
parameter.measured: Vd (L/kg)
Just the number please, in L/kg, no unit attached.

q: Sample CCCCn1c(C(=O)c2cc(C)cc(C#N)c2)c(C(C)C)c(=O)[nH]c1=O — what was its Vd?
a: 2.23

q: What do you get for CCn1c(C(=O)c2cc(C)cc(C#N)c2)c(C(C)C)c(=O)[nH]c1=O ?
a: 2.25

q: What do you get for CCc1c(C(=O)c2cc(C)cc(C#N)c2)n(CC)c(=O)[nH]c1=O ?
a: 1.53

q: What do you get for Cc1cc(C#N)cc(C)c1Oc1nc(Nc2ccc(C#N)cc2)nc(N)c1Br [ETRAVIRINE] ?
a: 1.6

q: What do you get for CCCn1c(C(=O)c2cc(C)cc(C#N)c2)c(C(C)C)c(=O)[nH]c1=O ?
a: 1.4

q: What do you get for Cc1cc(C#N)cc(C(=O)c2[nH]c(=O)[nH]c(=O)c2C(C)C)c1 ?
a: 0.45

---

Experiment: Oral bioavailability in Beagle dog at 2 mg/kg
Assay type: ADME, organism-based, Canis lupus familiaris
Settings: in vivo
parameter.measured: bioavailability (%)
Just the number please, in %, no unit attached.

q: Sample CCCCn1c(C(=O)c2cc(C)cc(C#N)c2)c(C(C)C)c(=O)[nH]c1=O — what was its bioavailability?
a: 28

---

Assay: Oral bioavailability in Beagle dog at 5 mg/kg, po dosed as Tablet formulation
Format: ADME, organism-based, Canis lupus familiaris
Conditions: in vivo
parameter.measured: bioavailability (%)
Just the number please, in %, no unit attached.

Solved cases (2 shown):
CCn1c(C(=O)c2cc(C)cc(C#N)c2)c(C(C)C)c(=O)[nH]c1=O : 45.1
CCn1c(C(=O)c2cc(C)cc(C#N)c2)c(C(C)C)c(=O)n(COC(C)=O)c1=O : 35.3

// next entry
q: Sample CCn1c(C(=O)c2cc(C)cc(C#N)c2)c(C(C)C)c(=O)n(COC(=O)OC(C)C)c1=O — what was its bioavailability?
a: 24

---

Assay: Oral bioavailability in Beagle dog at 5 mg/kg, po dosed as suspension
Type: ADME, organism-based, Canis lupus familiaris
Settings: in vivo
parameter.measured: bioavailability (%)
Just the number please, in %, no unit attached.

Solved cases (3 shown):
CCn1c(C(=O)c2cc(C)cc(C#N)c2)c(C(C)C)c(=O)n(COP(=O)(O)O)c1=O : 75.2
CCn1c(C(=O)c2cc(C)cc(C#N)c2)c(C(C)C)c(=O)[nH]c1=O : 35.8
CCn1c(C(=O)c2cc(C)cc(C#N)c2)c(C(C)C)c(=O)n(COC(=O)OC(C)C)c1=O : 108

q: Sample CCn1c(C(=O)c2cc(C)cc(C#N)c2)c(C(C)C)c(=O)n(COC(C)=O)c1=O — what was its bioavailability?
a: 48.9

---

Experiment: Oral bioavailability in Beagle dog at 4 mg/kg
Assay type: ADME, organism-based, Canis lupus familiaris
Conditions: in vivo
parameter.measured: bioavailability (%)
Just the number please, in %, no unit attached.

q: Sample Cc1cc(C#N)cc(C)c1Oc1nc(Nc2ccc(C#N)cc2)nc(N)c1Br — what was its bioavailability?
a: 13
